Data provenance: PubChem BioAssay AID651581

Catalogue of IC50 values
# TESTED_ON: Hypoxia-inducible factor 1-alpha (Homo sapiens) (UniProt Q16665)
# Sequence (Q16665 whole entry, looked up): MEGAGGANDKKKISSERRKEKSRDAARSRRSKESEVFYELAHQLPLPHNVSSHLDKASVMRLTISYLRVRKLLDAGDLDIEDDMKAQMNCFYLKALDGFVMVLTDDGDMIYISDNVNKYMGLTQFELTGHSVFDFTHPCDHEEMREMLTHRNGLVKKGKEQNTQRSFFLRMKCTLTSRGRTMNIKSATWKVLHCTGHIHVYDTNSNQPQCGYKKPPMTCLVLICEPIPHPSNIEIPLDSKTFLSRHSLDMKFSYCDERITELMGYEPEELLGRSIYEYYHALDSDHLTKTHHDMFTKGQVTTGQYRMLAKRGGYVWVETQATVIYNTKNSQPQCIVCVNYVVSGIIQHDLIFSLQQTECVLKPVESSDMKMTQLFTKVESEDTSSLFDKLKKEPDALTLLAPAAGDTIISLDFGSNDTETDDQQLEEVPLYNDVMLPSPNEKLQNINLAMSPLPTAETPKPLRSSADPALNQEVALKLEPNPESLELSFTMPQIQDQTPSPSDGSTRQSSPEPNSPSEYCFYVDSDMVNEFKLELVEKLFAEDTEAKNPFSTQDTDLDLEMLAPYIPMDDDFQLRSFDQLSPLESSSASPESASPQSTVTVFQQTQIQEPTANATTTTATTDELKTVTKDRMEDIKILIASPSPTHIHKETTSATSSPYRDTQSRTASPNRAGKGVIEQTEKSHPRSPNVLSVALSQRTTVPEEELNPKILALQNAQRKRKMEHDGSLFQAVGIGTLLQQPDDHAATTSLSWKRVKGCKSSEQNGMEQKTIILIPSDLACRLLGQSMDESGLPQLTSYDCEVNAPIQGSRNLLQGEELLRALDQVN
# EXPERIMENT_SUMMARY: HIF-2a and HIF-1a reporter inhibition panel, dose response, selectivity assay for HIF-2a inhibitor project, cell-based, luminescence (AID 651581)
# ASSAY_CONTEXT: HIF-1a, run 2

| MOLECULE | TESTED_ON | MEASUREMENT_KIND | REPORTED |
| --- | --- | --- | --- |
| Cc1ccc(-n2nc3ccc(N)cc3n2)c(C)c1 | Hypoxia-inducible factor 1-alpha (Homo sapiens) (UniProt Q16665) | IC50 | > 99 µM |
| O=C(O)c1cccc(CSc2nnc(COc3ccccc3)o2)c1 | Hypoxia-inducible factor 1-alpha (Homo sapiens) (UniProt Q16665) | IC50 | > 99 µM |
| CCOC(=O)C1CCCN(C(=O)COc2ccc(C(C)(C)C)cc2)CC1 (stereo unspecified) | Hypoxia-inducible factor 1-alpha (Homo sapiens) (UniProt Q16665) | IC50 | > 99 µM |
| N#Cc1c(NC(=O)CCCC(=O)O)sc2c1CCCCC2 | Hypoxia-inducible factor 1-alpha (Homo sapiens) (UniProt Q16665) | IC50 | > 99 µM |
| CCS(=O)(=O)c1ncc(Cl)c(C(=O)Nc2ccc(C)cc2)n1 | Hypoxia-inducible factor 1-alpha (Homo sapiens) (UniProt Q16665) | IC50 | 20 µM |

Entry under test: Cc1c(CCC(=O)N2CCC[C@H]2C(=O)O)c(=O)oc2cc3oc4c(c3cc12)CCCC4 . Its IC50 was 1.53 µM
